Test system: Puccinia recondita
ASSAY NAME: In vivo preventive test on Puccinia recondita (brown rust on wheat)
RECORDED CONDITIONS: dose 500 ppm; wheat plants sprayed 24 h before contamination; grading 12 days after contamination
The entries below are paired with their reported Eff. %.
Please state the figure in %; there is no need to write the unit.

> print(dat)
                                   compound  measured.parameter  units  recorded.result
1  Cc1ccc(NC(=O)c2c(C(F)F)nn(C)c2F)c2c1C(C)(C)CC2C (stereo not drawn) [Example 19]              Eff. %      %               94
2  CCC1Cc2c(NC(=O)c3c(C(F)F)nn(C)c3Cl)cccc2C1(C)C (stereo not drawn) [Example 90]              Eff. %      %              100

Here is another compound to look at.
With Puccinia recondita as the test system, CCC1(C)CCc2c(NC(=O)c3c(C(F)F)nn(C)c3Cl)cccc21 (single isomer, unassigned) [Example 52] showed Eff. % of 98

----------
Tested on: Puccinia recondita
ASSAY NAME: In vivo preventive test on Puccinia recondita (brown rust on wheat)
RECORDED CONDITIONS: dose 500 ppm; wheat plants sprayed 24 h before contamination; grading 12 days after contamination
MEASURED PARAMETER: Eff. % (%)
Just the number in %, nothing appended.

A selection of reference data follows.
> print(dat)
                                   compound  recorded.result
1  Cn1nc(C(F)F)c(C(=O)Nc2cccc3c2CCC32CC2)c1Cl              100
2  CC1CC(C)(C)c2c(Br)ccc(NC(=O)c3c(C(F)F)nn(C)c3F)c21 (stereo not drawn)               71

Short answer for CC1CC(C)(C)c2c(Br)ccc(NC(=S)c3c(C(F)F)nn(C)c3F)c21 (stereo not drawn) : Eff. % was 94

response.value for Cn1nc(C(F)F)c(C(=O)Nc2cccc3c2CCC3C(C)(C)C)c1Cl (stereo not drawn) (field: Eff. %) = 94

Record CC(C)CC1CC(C)c2c(NC(=O)c3c(C(F)F)nn(C)c3Cl)cccc21 (stereo not drawn) . Reported Eff. %: 94

Summary for this compound, CC(C)C1Cc2c(NC(=O)c3c(C(F)F)nn(C)c3F)cccc2C1(C)C (stereo not drawn) : Eff. % is 100

Eff. % in this record for CCON=C1CCc2c(NC(=O)c3c(C(F)F)nn(C)c3F)cccc21 : 72

The compound listed as CC1Cc2c(NC(=O)c3c(C(F)F)nn(C)c3Cl)cccc2C1(C)C (stereo not drawn) shows Eff. % equal to 100

GET /value?item= CC1CC(C)c2c(NC(=O)c3c(C(F)F)nn(C)c3Cl)cccc21 (stereo not drawn) [Example 44] &field=Eff. % returns 100

----------
ASSAY NAME: Measurement of log P values by HPLC on reversed phase columns (EEC directive 79/831 Annex V.A8)
Format: physicochemical
RECORDED CONDITIONS: pH 2.7
MEASURED PARAMETER: chromatographic logP
Enter the number alone.

Briefly, chromatographic logP measured for CC1c2cccc(NC(=O)c3c(C(F)F)nn(C)c3Cl)c2CC12CCCC2 (stereo not shown) [Example 33] : 4.63
